# assay-system: human TLR8 (Homo sapiens)
# Construct: host or cells: HEK293 (HEK-BLUE-hTLR8)
# Sequence (Q9NR97 27-1041): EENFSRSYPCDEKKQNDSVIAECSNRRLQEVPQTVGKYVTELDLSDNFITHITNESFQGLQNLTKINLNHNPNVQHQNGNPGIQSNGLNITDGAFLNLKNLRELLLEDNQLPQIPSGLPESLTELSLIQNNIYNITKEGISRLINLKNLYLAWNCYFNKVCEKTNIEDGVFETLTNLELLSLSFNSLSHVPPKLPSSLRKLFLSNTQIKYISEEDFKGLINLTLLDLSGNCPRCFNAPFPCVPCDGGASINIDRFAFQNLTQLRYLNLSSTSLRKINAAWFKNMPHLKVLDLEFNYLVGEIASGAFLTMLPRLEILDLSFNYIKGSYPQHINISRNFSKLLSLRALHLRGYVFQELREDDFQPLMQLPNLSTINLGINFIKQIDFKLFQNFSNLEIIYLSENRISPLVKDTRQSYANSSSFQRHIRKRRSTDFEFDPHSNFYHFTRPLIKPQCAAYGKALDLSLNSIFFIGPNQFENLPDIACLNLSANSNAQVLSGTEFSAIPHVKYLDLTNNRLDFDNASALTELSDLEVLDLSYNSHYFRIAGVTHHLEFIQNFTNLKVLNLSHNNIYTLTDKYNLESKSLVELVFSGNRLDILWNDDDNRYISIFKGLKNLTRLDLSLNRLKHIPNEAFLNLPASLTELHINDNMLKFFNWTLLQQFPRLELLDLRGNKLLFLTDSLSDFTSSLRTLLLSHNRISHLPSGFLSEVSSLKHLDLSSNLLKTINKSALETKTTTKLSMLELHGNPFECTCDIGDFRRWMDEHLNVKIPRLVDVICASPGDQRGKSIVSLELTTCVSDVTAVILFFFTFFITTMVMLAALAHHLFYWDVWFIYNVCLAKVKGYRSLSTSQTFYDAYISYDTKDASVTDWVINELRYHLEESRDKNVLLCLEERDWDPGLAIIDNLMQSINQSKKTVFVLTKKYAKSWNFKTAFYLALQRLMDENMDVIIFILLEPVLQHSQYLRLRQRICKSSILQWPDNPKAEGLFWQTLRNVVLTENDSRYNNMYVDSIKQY
# protocol-text: TLR activation and specificity, HEK-BLUE-hTLR8 SEAP reporter cells
# Assay type: cell-based
# reported-conditions: 16-20 hours, lowest concentration giving SEAP response at least 2× vehicle control, tested 0.01-30 micromolar
experimental-readout: MEC to Produce TLR Activation, TLR 8 (µM)
Reply with just the number (in µM).

CCOC[C@H](Cc1ccc(OCCCCCCCCCCCn2cc(-c3ccccc3)nn2)cc1)n1cnc2c(N)nc3ccccc3c21
3.3
CCOC[C@H](Cc1ccc(OCCN=[N+]=[N-])cc1)n1cnc2c(N)nc3ccccc3c21
10

Next item in the queue.
[ask] Item: CCOC[C@H](Cc1ccc(OCCn2cc(-c3ccccc3)nn2)cc1)n1cnc2c(N)nc3ccccc3c21 Test system: human TLR8 (Homo sapiens) Read-out: MEC to Produce TLR Activation, TLR 8 Value: ?
[reply] 3.3

====

# assay-system: human TLR7 (Homo sapiens, UniProt Q9NYK1)
# Construct: host or cells: HEK293 (HEK-BLUE-hTLR7)
# Sequence (Q9NYK1 27-1049): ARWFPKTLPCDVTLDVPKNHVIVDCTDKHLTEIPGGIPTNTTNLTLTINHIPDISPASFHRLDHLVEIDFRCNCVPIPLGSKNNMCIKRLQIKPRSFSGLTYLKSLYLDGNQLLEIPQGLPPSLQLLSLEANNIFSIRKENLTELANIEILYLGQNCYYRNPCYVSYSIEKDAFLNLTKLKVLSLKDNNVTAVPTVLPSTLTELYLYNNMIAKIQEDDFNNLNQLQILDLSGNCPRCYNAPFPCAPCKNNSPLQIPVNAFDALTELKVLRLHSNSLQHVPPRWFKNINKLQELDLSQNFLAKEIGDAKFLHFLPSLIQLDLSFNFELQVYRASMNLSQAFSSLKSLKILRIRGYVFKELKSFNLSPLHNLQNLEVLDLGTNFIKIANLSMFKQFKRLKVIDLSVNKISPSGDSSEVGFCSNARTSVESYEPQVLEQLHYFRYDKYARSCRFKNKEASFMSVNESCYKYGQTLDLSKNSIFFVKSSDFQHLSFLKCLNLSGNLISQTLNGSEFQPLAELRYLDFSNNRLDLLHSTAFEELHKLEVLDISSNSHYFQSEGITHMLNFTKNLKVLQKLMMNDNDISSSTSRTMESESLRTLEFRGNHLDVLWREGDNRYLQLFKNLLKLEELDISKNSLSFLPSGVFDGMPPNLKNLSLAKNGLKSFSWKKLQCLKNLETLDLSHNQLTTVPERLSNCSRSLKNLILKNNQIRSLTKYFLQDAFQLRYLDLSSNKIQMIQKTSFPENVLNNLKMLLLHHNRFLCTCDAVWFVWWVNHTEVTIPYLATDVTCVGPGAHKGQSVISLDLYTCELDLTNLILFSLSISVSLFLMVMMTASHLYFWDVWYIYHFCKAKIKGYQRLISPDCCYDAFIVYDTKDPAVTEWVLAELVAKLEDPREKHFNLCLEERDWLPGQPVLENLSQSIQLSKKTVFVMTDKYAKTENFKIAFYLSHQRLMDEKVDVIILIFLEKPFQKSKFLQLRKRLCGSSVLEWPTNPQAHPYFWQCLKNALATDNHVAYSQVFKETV
# protocol-text: TLR activation and specificity, HEK-BLUE-hTLR7 SEAP reporter cells
# Format: cell-based
# reported-conditions: 16-20 hours, lowest concentration giving SEAP response at least 2× vehicle control, tested 0.01-30 micromolar
Catalogue of MEC to Produce TLR Activation, TLR 7 values

CCOC[C@H](Cc1ccc(OCCCCCCCCCCCn2cc(-c3ccccc3)nn2)cc1)n1cnc2c(N)nc3ccccc3c21 [Example 4]
3.3 µM

[ask] Field request: MEC to Produce TLR Activation, TLR 7 | item: CCOC[C@H](Cc1ccc(OCCn2cc(-c3ccccc3)nn2)cc1)n1cnc2c(N)nc3ccccc3c21 [Example 2]
[reply] ≤0.01 µM

[ask] Field request: MEC to Produce TLR Activation, TLR 7 | item: CCOC[C@H](Cc1ccc(OCCCCCCCCCCCN=[N+]=[N-])cc1)n1cnc2c(N)nc3ccccc3c21 [Example 3]
[reply] 1.1 µM

[ask] Field request: MEC to Produce TLR Activation, TLR 7 | item: CCOC[C@H](Cc1ccc(OCCN=[N+]=[N-])cc1)n1cnc2c(N)nc3ccccc3c21 [Example 1]
[reply] ≤0.01 µM
